B1: FBF1 (parent)
chain: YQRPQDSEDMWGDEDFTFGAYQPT

# Variants of: B1
# Protocol Description: protein stability index of a GFP-peptide fusion (GPS, HEK-293T) (PSI 1-6); higher = more stable;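 further: lentivirally expressed fusions sorted by FACS into six bins by GFP to DsRed ratio, PSI derived from sequencing read proportions per bin multiplied by bin number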
# Setup Conditions: c terminus: a fixed tail appended
Readout Kind: protein stability index

P4T ... 2.57
A20H ... 2.95
D13Y ... 1.72
Q5W ... 2.03
E8R ... 1.58
G19A ... 2.59
Q2D ... 4.81
M10Q ... 3.71
D9N ... 2.48
Q5H ... 2.44
F18H ... 3.04
D9W ... 2.01
T24Y ... 2.44
Y21P ... 3.56
A20C ... 2.18
D9H ... 2.03
A20R ... 2.18
Q22M ... 2.22
Y1K ... 4.24
D9C ... 1.55
Q22A ... 2.77
Y21T ... 3.1
